test system: A431; experiment: A431 cell proliferation assay (CellTiter Glo, 72 hours); type: cell-based; details: Homo sapiens, A-431, 72 h, cell proliferation, A431, 72 hours, Table 2; read-out: A431 IC50
pIC50: −log10 of the molar value.
outcome-measure: pIC50

The reported value for `COc1cnn(-c2ccc(Nc3nc(Nc4cc(OC)c(N5CCC(O)CC5)cc4C)ncc3Br)c(P(C)(C)=O)c2)c1` in terms of pIC50 is < 5.00

The reported value for `CCc1cc(Nc2ncc(Br)c(Nc3ccc(-c4nccnc4OC)cc3P(C)(C)=O)n2)c(OC)cc1N1CCC(N2CCN(C)CC2)CC1` in terms of pIC50 is < 5.00

The reported value for `C#Cc1ccc(-c2ccc(Nc3nc(Nc4cc(C)c(N5CCC(N6CCN(C)CC6)CC5)cc4OC)ncc3Br)c(P(C)(C)=O)c2)s1` in terms of pIC50 is 6.30

The reported value for `COc1cnn(-c2ccc(Nc3nc(Nc4cc(OC)c(N5CCOCC5)cc4C4CC4)ncc3Br)c(P(C)(C)=O)c2)c1` in terms of pIC50 is < 5.00

* * *

pIC50: −log10 of the molar value.
The compounds below have reported pIC50 for EGFR WT (Homo sapiens, UniProt P00533).
outcome-measure: pIC50

Consider the following illustrative entries.
CCOc1noc(C)c1-c1ccc(Nc2nc(Nc3cc(CC)c(N4CCC(N5CCN(C)CC5)CC4)cc3OC)ncc2Cl)c(P(C)(C)=O)c1 [Compound 58]	7.19
COc1cc(N2CCC(N3CCN(C)CC3)CC2)ccc1Nc1ncc(Cl)c(Nc2ccc(C)cc2P(C)(C)=O)n1 [compound 1, reference compound]	7.22
C#Cc1ccc(-c2ccc(Nc3nc(Nc4cc(C)c(N5CCC(N6CCN(C)CC6)CC5)cc4OC)ncc3Br)c(P(C)(C)=O)c2)s1 [Compound K-016]	7.88

(A) COc1cc(Nc2ncc(Br)c(Nc3ccc(-c4cnccn4)cc3P(C)(C)=O)n2)c(C)cc1N1CCC(N2CCN(C)CC2)CC1 [Compound K-017]
(B) CCc1cc(Nc2ncc(Br)c(Nc3ccc(-c4nn(C)c5ncccc45)cc3P(C)(C)=O)n2)c(OC)cc1N1CCC(N2CCN(C)CC2)CC1 [Compound 9]
Lab note: check whether A or B shows the higher recorded pIC50. Return value: the label identifying the chosen record.
A

* * *

biological target: Ba/F3 cells with EGFR Δ19del/T790M/C797S mutation gene stably overexpressed (Homo sapiens, UniProt P00533, T790M/C797S, cells depend on it, form not given); test: Ba/F3-Δ19del/T790M/C797S cell proliferation assay (CellTiter Glo, 72 hours); type: cell-based; conditions: Table 2, read-out: EGFR Δ19del/T790M/C797S IC50
Sequence (P00533 with tags, fused parts or gaps DEL746-750/T790M/C797S, form open): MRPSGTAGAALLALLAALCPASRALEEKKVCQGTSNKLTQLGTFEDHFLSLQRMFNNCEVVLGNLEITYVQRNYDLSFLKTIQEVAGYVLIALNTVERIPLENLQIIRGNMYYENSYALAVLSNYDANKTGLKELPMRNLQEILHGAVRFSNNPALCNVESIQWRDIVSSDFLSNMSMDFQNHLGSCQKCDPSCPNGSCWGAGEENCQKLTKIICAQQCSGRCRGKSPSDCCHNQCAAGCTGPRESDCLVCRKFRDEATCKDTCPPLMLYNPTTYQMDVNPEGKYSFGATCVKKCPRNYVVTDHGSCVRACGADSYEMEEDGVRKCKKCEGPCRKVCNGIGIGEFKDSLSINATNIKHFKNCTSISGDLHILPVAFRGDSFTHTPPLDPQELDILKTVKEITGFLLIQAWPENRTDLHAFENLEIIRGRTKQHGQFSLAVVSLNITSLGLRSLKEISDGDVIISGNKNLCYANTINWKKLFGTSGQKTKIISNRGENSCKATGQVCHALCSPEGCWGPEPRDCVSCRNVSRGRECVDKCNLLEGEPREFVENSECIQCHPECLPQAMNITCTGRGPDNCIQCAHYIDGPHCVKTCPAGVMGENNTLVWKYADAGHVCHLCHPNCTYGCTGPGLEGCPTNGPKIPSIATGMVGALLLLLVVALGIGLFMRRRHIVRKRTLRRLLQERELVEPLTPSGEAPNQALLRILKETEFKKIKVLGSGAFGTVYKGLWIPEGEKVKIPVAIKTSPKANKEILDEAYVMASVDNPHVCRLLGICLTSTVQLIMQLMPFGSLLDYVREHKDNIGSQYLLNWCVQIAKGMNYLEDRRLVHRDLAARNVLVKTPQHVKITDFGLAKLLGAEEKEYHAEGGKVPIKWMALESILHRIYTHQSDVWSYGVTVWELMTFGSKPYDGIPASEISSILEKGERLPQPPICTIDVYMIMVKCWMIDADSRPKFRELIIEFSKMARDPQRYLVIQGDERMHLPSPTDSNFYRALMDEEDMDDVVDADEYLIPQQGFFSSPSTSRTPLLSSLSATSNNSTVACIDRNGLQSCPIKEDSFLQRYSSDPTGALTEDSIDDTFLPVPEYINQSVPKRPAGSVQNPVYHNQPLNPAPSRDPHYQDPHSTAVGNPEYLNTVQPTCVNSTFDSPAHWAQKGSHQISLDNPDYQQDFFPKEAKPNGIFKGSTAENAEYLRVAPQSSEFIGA
outcome-measure: GI50 (nM)

Consider the following illustrative entries.
CCc1cc(Nc2ncc(Br)c(Nc3ccc(-c4cn(C)nc4OC)cc3P(C)(C)=O)n2)c(OC)cc1N1CCC(N2CCN(C)CC2)CC1	24.5
COc1cnn(-c2ccc(Nc3nc(Nc4cc(OC)c(N5CCC(N(C)C)CC5)cc4C)ncc3Br)c(P(C)(C)=O)c2)c1	15.4
CCc1cc(Nc2ncc(Br)c(Nc3ccc(-n4cc(F)cn4)cc3P(C)(C)=O)n2)c(OC)cc1N1CCC(N2CCN(C)CC2)CC1	9.5
CCc1cc(Nc2ncc(Cl)c(Nc3ccc(-c4cncs4)cc3P(C)(C)=O)n2)c(OC)cc1N1CCC(N2CCN(C)CC2)CC1	16.1
CCc1cc(Nc2ncc(Br)c(Nc3ccc(-c4cnn(C)n4)c(F)c3P(C)(C)=O)n2)c(OC)cc1N1CCC(N2CCN(C)CC2)CC1 [Compound 84]	5.8

(1) CCc1cc(Nc2ncc(Br)c(Nc3ccc(-c4ccc(N(C)C)nn4)cc3P(C)(C)=O)n2)c(OC)cc1N1CCC(N2CCN(C)CC2)CC1 [Compound 77]
(2) COc1cnn(-c2ccc(Nc3nc(Nc4cc(C)c(N5CCOCC5)c(OC)c4)ncc3Br)c(P(C)(C)=O)c2)c1
(3) CCc1cc(Nc2ncc(Br)c(Nc3ccc(-c4ccc(OC)cn4)cc3P(C)(C)=O)n2)c(OC)cc1N1CCC(N2CCN(C)CC2)CC1
Reorder: GI50, max to min. List each label, following the requested order.
1, 2, 3

(A) CCc1cc(Nc2ncc(Br)c(Nc3ccc(-c4nn(C)c5ncccc45)cc3P(C)(C)=O)n2)c(OC)cc1N1CCC(N2CCN(C)CC2)CC1
(B) CCc1cc(Nc2ncc(Br)c(Nc3ccc(-c4cnn(C)c4)cc3P(C)(C)=O)n2)c(OC)cc1N1CCC(N2CCCC2)CC1
(C) COc1cnn(-c2ccc(Nc3nc(Nc4cc(OC)c(N5CCN(C)CC5)cc4C)ncc3Br)c(P(C)(C)=O)c2)c1
Your job: order these 3 records by GI50, ascending. List each label, following the requested order.
C, B, A
(C: 5.7 nM, B: 15.6 nM, A: 23.1 nM)

(1) CCc1cc(Nc2ncc(Br)c(Nc3ccc(-c4nccnc4OC)cc3P(C)(C)=O)n2)c(OC)cc1N1CCC(N2CCN(C)CC2)CC1
(2) CCc1cc(Nc2ncc(Br)c(Nc3ccc(-c4ccc(N(C)C)nn4)cc3P(C)(C)=O)n2)c(OC)cc1N1CCC(N2CCN(C)CC2)CC1 [Compound 37]
(3) COc1cnn(-c2ccc(Nc3nc(Nc4cc(-c5cnn(C)c5)c(N5CCN(C(C)=O)CC5)cc4OC)ncc3Br)c(P(C)(C)=O)c2)c1
Reorder: GI50, max to min. List each label, following the requested order.
1, 2, 3

* * *

target: Ba/F3-EGFR wild-type cell line (Homo sapiens); assay: Ba/F3-EGFR wild-type cell proliferation assay (CellTiter Glo, 72 hours); format: cell-based; conditions: Table 2, read-out: EGFR WT IC50
Sequence (P00533 whole entry, change not shown): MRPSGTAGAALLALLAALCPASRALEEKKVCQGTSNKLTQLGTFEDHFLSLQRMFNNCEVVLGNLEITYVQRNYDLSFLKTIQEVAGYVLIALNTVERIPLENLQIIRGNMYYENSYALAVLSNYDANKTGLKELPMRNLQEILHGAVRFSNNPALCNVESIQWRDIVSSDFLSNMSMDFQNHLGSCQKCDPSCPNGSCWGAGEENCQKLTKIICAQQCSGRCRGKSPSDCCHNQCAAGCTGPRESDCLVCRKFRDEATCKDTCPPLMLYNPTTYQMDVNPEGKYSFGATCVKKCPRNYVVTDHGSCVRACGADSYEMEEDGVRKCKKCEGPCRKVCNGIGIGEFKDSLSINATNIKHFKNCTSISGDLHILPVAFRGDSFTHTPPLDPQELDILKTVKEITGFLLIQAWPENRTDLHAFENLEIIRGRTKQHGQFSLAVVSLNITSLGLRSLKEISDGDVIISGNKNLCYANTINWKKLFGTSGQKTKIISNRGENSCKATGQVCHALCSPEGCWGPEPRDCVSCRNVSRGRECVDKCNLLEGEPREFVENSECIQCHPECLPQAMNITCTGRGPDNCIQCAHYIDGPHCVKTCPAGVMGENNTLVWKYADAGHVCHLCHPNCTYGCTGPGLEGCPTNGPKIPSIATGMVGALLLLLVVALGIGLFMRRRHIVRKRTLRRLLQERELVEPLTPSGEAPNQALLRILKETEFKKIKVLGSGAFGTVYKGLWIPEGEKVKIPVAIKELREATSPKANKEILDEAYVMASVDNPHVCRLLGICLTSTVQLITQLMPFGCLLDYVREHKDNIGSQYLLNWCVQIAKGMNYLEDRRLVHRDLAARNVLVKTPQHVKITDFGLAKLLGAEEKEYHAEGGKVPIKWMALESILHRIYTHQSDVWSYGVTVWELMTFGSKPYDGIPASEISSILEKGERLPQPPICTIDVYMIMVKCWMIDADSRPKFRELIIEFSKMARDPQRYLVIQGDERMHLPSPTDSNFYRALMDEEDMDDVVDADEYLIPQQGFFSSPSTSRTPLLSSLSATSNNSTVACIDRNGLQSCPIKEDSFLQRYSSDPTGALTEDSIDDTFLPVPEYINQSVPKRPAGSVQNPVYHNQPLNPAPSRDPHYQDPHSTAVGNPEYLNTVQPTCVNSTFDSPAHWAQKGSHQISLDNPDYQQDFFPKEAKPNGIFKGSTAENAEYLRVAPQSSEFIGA
outcome-measure: GI50 (nM)

CCc1cc(Nc2ncc(Br)c(Nc3ccc(-c4cnc(N(C)C)nc4)cc3P(C)(C)=O)n2)c(OC)cc1N1CCC(N2CCN(C)CC2)CC1 [Compound K-057]	206
CCc1cc(Nc2ncc(Cl)c(Nc3ccc(-c4cnn5c4CCCC5)cc3P(C)(C)=O)n2)c(OC)cc1N1CCC(N2CCN(C)CC2)CC1 [Compound K-104]	204
CCc1cc(Nc2ncc(Br)c(Nc3ccc(-c4cnn(C)c4)cc3P(C)(C)=O)n2)c(OC)cc1N1CCC(N2CCOCC2)CC1 [Compound K-042]	206

* * *

target: IGF1R (Homo sapiens)
Sequence (P08069 31-1367, species assumed): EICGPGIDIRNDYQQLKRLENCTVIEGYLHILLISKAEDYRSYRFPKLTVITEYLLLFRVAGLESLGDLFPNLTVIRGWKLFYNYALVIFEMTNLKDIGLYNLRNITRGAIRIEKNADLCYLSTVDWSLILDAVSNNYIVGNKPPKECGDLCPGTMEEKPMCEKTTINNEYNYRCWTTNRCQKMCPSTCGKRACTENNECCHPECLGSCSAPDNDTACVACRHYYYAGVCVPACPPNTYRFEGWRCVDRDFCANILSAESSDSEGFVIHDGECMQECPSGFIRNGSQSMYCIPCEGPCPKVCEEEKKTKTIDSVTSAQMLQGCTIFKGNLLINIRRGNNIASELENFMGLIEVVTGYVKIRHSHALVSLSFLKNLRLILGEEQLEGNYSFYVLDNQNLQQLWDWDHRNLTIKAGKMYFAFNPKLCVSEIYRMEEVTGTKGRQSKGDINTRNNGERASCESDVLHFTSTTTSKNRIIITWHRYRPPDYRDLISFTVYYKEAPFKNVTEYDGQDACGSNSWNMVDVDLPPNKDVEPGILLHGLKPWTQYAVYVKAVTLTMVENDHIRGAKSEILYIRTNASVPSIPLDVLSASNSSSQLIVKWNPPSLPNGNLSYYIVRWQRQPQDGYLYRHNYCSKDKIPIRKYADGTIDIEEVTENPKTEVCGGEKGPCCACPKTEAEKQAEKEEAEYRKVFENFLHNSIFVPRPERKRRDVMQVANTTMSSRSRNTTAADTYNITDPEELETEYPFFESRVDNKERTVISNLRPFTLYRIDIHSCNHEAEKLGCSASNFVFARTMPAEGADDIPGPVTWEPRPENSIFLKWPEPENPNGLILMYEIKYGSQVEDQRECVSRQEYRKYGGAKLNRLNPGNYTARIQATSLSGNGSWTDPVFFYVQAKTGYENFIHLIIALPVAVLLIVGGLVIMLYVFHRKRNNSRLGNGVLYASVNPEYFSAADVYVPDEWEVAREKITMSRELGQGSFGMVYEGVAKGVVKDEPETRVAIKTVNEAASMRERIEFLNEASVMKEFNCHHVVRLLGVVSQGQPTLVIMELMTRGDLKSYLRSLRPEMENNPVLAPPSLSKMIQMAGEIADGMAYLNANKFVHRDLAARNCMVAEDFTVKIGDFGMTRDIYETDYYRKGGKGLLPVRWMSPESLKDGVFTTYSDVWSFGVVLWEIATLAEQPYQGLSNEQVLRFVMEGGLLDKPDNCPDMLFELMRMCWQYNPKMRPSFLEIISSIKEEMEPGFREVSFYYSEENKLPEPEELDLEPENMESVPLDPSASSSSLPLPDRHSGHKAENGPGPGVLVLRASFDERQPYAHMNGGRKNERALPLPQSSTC
pIC50: −log10 of the molar value.
outcome-measure: pIC50

CCc1cc(Nc2ncc(Br)c(Nc3ccc(-c4ccc(C)cn4)cc3P(C)(C)=O)n2)c(OC)cc1N1CCC(N2CCN(C)CC2)CC1 [Compound 83]	6.74
CCc1cc(Nc2ncc(Br)c(Nc3ccc(-c4cnccn4)cc3P(C)(C)=O)n2)c(OC)cc1N1CCC(N2CCN(C)CC2)CC1	7.03
CCc1cc(Nc2ncc(Br)c(Nc3ccc(-c4cnn(C)n4)cc3P(C)(C)=O)n2)c(OC)cc1N1CCC(N2CCN(C)CC2)CC1	7.17

(P) CCc1cc(Nc2ncc(Br)c(Nc3ccc(-c4ccn[nH]4)cc3P(C)(C)=O)n2)c(OC)cc1N1CCC(N2CCN(C)CC2)CC1
(Q) CCc1cc(Nc2ncc(Cl)c(Nc3ccc(-c4cnn5c4CCCC5)cc3P(C)(C)=O)n2)c(OC)cc1N1CCC(N2CCN(C)CC2)CC1
For the pair P and Q , which entry has the numerically smaller recorded pIC50? Return value: the label identifying the chosen record.
Q

* * *

Tested on: A431
Assay: A431 cell proliferation assay (CellTiter Glo, 72 hours)
Type: cell-based
Details: Homo sapiens, A-431, 72 h, cell proliferation, A431, 72 hours, Table 2; read-out: A431 IC50
Protocol: Cell line: Ba/F3 cells with EGFR Δ19del/T790M/C797S mutation gene stably overexpressed named Ba/F3-Δ119del/T90M/C797S, and A431 and Ba/F3-EGFR wild-type cell line. RPMI 1640 and 10% FBS and 1% PS; DMEM and 10% FBS and 1% PS. […] c) Read luminous signal value with PerkinElmer reader, […] The data were analyzed by GraphPad Prism 6.0 software to obtain the fitting curve of compound activity. […]
pIC50: −log10 of the molar value.
outcome-measure: pIC50

Consider the following illustrative entries.
CCc1cc(Nc2ncc(Br)c(Nc3ccc(-c4ncco4)cc3P(C)(C)=O)n2)c(OC)cc1N1CCC(N2CCN(C)CC2)CC1 [Compound 27]	6.06
CCc1cc(Nc2ncc(Br)c(Nc3ccc(-c4ncc(F)cn4)cc3P(C)(C)=O)n2)c(OC)cc1N1CCC(N2CCN(C)CC2)CC1 [Compound 29]	5.57
C#Cc1cnn(-c2ccc(Nc3nc(Nc4cc(CC)c(N5CCC(N6CCN(C)CC6)CC5)cc4OC)ncc3Br)c(P(C)(C)=O)c2)c1 [Compound K-009]	5.61
CCc1cc(Nc2ncc(Cl)c(Nc3ccc(-c4nccc(OC)n4)cc3P(C)(C)=O)n2)c(OC)cc1N1CCC(N2CCN(C)CC2)CC1 [Compound 19]	6.06
CCc1cc(Nc2ncc(Cl)c(Nc3ccc(-c4ncc(OC)cn4)cc3P(C)(C)=O)n2)c(OC)cc1N1CCC(N2CCN(C)CC2)CC1 [Compound 20]	5.83

(P) CCc1cc(Nc2ncc(Br)c(Nc3ccc(-n4cc(F)cn4)cc3P(C)(C)=O)n2)c(OC)cc1N1CCC(N2CCN(C)CC2)CC1 [Compound 44]
(Q) COc1cc(N2CCC(N3CCCCC3)CC2)c(-c2cnn(C)c2)cc1Nc1ncc(Br)c(Nc2ccc(-c3ccccc3)c(C)c2P(C)(C)=O)n1 [Compound K-051]
(R) CCc1cc(Nc2ncc(Br)c(Nc3ccc(-c4cscn4)cc3P(C)(C)=O)n2)c(OC)cc1N1CCC(N2CCN(C)CC2)CC1 [Compound 28]
Reorder: pIC50, max to min. List each label, following the requested order.
Q, R, P

(P) COc1cc(Nc2ncc(Br)c(Nc3ccc(-c4cnc(C5CC5)cn4)cc3P(C)(C)=O)n2)c(C)cc1N1CCOCC1 [Compound K-033]
(Q) CCc1cc(Nc2ncc(Br)c(Nc3ccc(-c4cnc5c(ccn5C)c4)cc3P(C)(C)=O)n2)c(OC)cc1N1CCC(N2CCN(C)CC2)CC1 [Compound 55]
(R) CCc1cc(Nc2ncc(Br)c(Nc3ccc(-c4cncnc4)cc3P(C)(C)=O)n2)c(OC)cc1N1CCC(N2CCN(C)CC2)CC1 [Compound 22]
(S) CCc1cc(Nc2ncc(Br)c(Nc3ccc(-c4cnn(C)c4)c(OC)c3P(C)(C)=O)n2)c(OC)cc1N1CCC(N2CCN(C)CC2)CC1 [Compound K-041]
(T) CCc1cc(Nc2ncc(Br)c(Nc3ccc(-c4nn(C)c5ncccc45)cc3P(C)(C)=O)n2)c(OC)cc1N1CCC(N(C)C)CC1 [Compound K-079]
Your job: order these 5 records by pIC50, ascending. List each label, following the requested order.
T, Q, P, R, S
